Assignment: determine reported Activity for the given compounds.
# STUDY_TARGET: Glutamate receptor ionotropic, AMPA (Rattus norvegicus) (UniProt P19491+P19492+P19493+P19490)
# RUN_DESCRIPTION: Positive allosteric modulation of AMPA receptor in embryonic rat brain cells assessed as concentration required for 2-fold increase in AMPA-induced membrane depolarization after 3 mins by fluorescence assay
# Type: cell-based

Worked examples, 2 compounds total:
Item: CCN1CNS(=O)(=O)c2cc(C(=O)Oc3cccc(OC)c3)ccc21 | Activity: > 35 µM

Item: CCN1CNS(=O)(=O)c2cc(C(=O)Oc3ccccc3OC)ccc21 | Activity: 10.6 µM

Next compound, Activity to be filled in.
Item: CCCc1ccc(OC(=O)c2ccc3c(c2)S(=O)(=O)NCN3CC)cc1 | Activity: > 100 µM

---

# STUDY_TARGET: Glutamate receptor ionotropic, AMPA (Rattus norvegicus) (UniProt P19491+P19492+P19493+P19490)
# RUN_DESCRIPTION: Positive allosteric modulation of AMPA receptor in embryonic rat brain cells assessed as potentiation of membrane depolarization after 3 mins by fluorescence assay relative to AMPA
# Type: cell-based
ENDPOINT_NAME: max activation

Worked examples, 3 molecules total:
Item: CCOc1ccccc1OC(=O)c1ccc2c(c1)S(=O)(=O)NCN2CC | max activation: > 270%

Item: CCN1CNS(=O)(=O)c2cc(C(=O)OCCc3ccccc3)ccc21 | max activation: < 200%

Item: CCN1CNS(=O)(=O)c2cc(C(=O)Oc3cccc(OCc4ccccc4)c3)ccc21 | max activation: < 200%

Provide the reported max activation of each entry below, same order.
1. CCCc1ccc(OC(=O)c2ccc3c(c2)S(=O)(=O)NCN3CC)cc1
2. CCN1CNS(=O)(=O)c2cc(C(=O)Oc3ccc(C)cc3)ccc21
3. Cc1cccc(OC(=O)c2ccc3c(c2)S(=O)(=O)NCN3C)c1

1: < 200%; 2: < 200%; 3: < 200%

---

# STUDY_TARGET: Glutamate receptor ionotropic, AMPA (Rattus norvegicus) (UniProt P19491+P19492+P19493+P19490)
# RUN_DESCRIPTION: Positive allosteric modulation of AMPA receptor in embryonic rat brain cells assessed as concentration required for 2-fold increase in AMPA-induced membrane depolarization after 3 mins by fluorescence assay
# Type: cell-based
ENDPOINT_NAME: Activity

Item: Cc1ccccc1OC(=O)c1ccc2c(c1)S(=O)(=O)NCN2C | Activity: 0.94 µM

Provide the reported Activity of each entry below, same order.
1. CCN1CNS(=O)(=O)c2cc(C(=O)Oc3cccc(OCc4ccccc4)c3)ccc21
2. CN1CNS(=O)(=O)c2cc(C(=O)Oc3ccccc3)ccc21
3. CCN1CNS(=O)(=O)c2cc(C(=O)Oc3ccc(C)cc3)ccc21
4. CCN(C(=O)c1ccc2c(c1)S(=O)(=O)NCN2C)c1ccccc1
5. CN1CNS(=O)(=O)c2cc(C(=O)N(C)c3ccccc3)ccc21

1. > 100 µM
2. 3.66 µM
3. > 100 µM
4. > 100 µM
5. > 100 µM

Provide the reported Activity of each entry below, same order.
1. Cc1cccc(OC(=O)c2ccc3c(c2)S(=O)(=O)NCN3C)c1
2. CCN1CNS(=O)(=O)c2cc(C(=O)Oc3ccccc3OCc3ccccc3)ccc21
3. CCN1CNS(=O)(=O)c2cc(C(=O)Nc3ccccc3)ccc21
4. CN1CNS(=O)(=O)c2cc(C(=O)Nc3ccccc3)ccc21
5. CCN1CNS(=O)(=O)c2cc(C(=O)Oc3cccc(C)c3)ccc21
6. CCOc1ccccc1OC(=O)c1ccc2c(c1)S(=O)(=O)NCN2CC
7. COc1ccccc1OC(=O)c1ccc2c(c1)S(=O)(=O)NCN2C
8. CCc1ccccc1OC(=O)c1ccc2c(c1)S(=O)(=O)NCN2C

1: > 100 µM; 2: > 100 µM; 3: > 100 µM; 4: > 100 µM; 5: > 100 µM; 6: 21.6 µM; 7: 6.4 µM; 8: > 100 µM

Provide the reported Activity of each entry below, same order.
1. COc1ccccc1OC(=O)c1ccc2c(c1)S(=O)(=O)NCN2
2. CCN1CNS(=O)(=O)c2cc(C(=O)Oc3ccccc3C)ccc21
3. CCc1ccccc1OC(=O)c1ccc2c(c1)S(=O)(=O)NCN2CC
4. CCOc1ccccc1OC(=O)c1ccc2c(c1)S(=O)(=O)NCN2C

> 100 µM
3.48 µM
> 100 µM
7.08 µM

Provide the reported Activity of each entry below, same order.
1. CCN1CNS(=O)(=O)c2cc(C(=O)Oc3ccc(OC)cc3)ccc21
2. CN1CNS(=O)(=O)c2cc(C(=O)Oc3ccccc3OCc3ccccc3)ccc21
3. CCCc1ccccc1OC(=O)c1ccc2c(c1)S(=O)(=O)NCN2CC
4. CCN1CNS(=O)(=O)c2cc(C(=O)OCCc3ccccc3)ccc21
5. CCN1CNS(=O)(=O)c2cc(C(=O)OCc3ccccc3)ccc21

> 100 µM
> 100 µM
> 100 µM
> 100 µM
> 100 µM
